Ref: ChEMBL document CHEMBL1131410

System: Leishmania donovani
Test: In vitro inhibition of Leishmania donovani parasite
Assay type: functional, organism-based
pIC50: −log10 of the molar value.
Readout Type: pIC50

1) O=S(=O)(c1cc(C(F)(F)F)ccc1Cl)N1CCCCC1: 3.96

A = O=S(=O)(c1cc(C(F)(F)F)ccc1F)N1CCCCCC1
B = O=S(=O)(c1cc(C(F)(F)F)ccc1Cl)N1CCN(c2ccccn2)CC1
When the recorded pIC50 values are compared, which is smaller: that of A or that of B ? Please indicate the selected item by its label.
A
(A: 3.97, B: 4.36)

* * *

Experiment: Partition coefficient (logP)
Assay type: physicochemical
Conditions: octanol/water
Readout Type: logP

Illustrative cases are given below, each with its answer.
1) NS(=O)(=O)c1cc(C(F)(F)F)ccc1Cl: 1.98
2) O=S(=O)(c1cc(C(F)(F)F)ccc1Cl)N1CCCCC1: 4.01
3) O=S(=O)(c1cc(C(F)(F)F)ccc1F)N1CCN(c2ccccn2)CC1: 2.91

I = O=S(=O)(c1cc(C(F)(F)F)ccc1Cl)N1CCCC1
II = CNS(=O)(=O)c1cc(C(F)(F)F)ccc1F
When the recorded logP values are compared, which is smaller: that of I or that of II ? Please indicate the selected item by its label.
II
(II: 2.08, I: 3.44)

* * *

Test system: Leishmania donovani
Experiment: Compound was evaluated in vitro against Leishmania donovani parasite
Assay type: functional, organism-based
Readout Type: pIC50
Hey, just a heads up that pIC50 is the negative log base 10 of the concentration in molar.

GET pIC50 | system: Leishmania donovani | item: O=[N+]([O-])c1cc(C(F)(F)F)cc([N+](=O)[O-])c1Cl [CHLORALIN]
5.89

* * *

Assay: Partition coefficient (logP)
Format: physicochemical
Settings: octanol/water
Readout Type: logP

1. CN1CCN(S(=O)(=O)c2cc(C(F)(F)F)ccc2Cl)CC1: 3.16
2. CN1CCN(S(=O)(=O)c2cc(C(F)(F)F)ccc2F)CC1: 2.61
3. CCN(CC)CCNS(=O)(=O)c1cc(C(F)(F)F)ccc1Cl: 3.85
4. O=S(=O)(c1cc(C(F)(F)F)ccc1F)N1CCCCC1: 3.47
5. O=S(=O)(c1cc(C(F)(F)F)ccc1Cl)N1CCCCCC1: 4.57
6. O=S(=O)(c1cc(C(F)(F)F)ccc1F)N1CCCC1: 2.9
7. O=S(=O)(c1cc(C(F)(F)F)ccc1N1CCCC1)N1CCCC1: 3.57
